- experimental protocol: chemical genetic growth profiling, strain panel (AID 1159580);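 also: tested at 20 µM; growth read once vehicle control cultures reached saturation at 30 °C; 1 = growth at the plate median or of vehicle wells; lower values mean less growth of the strain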
- run parameters: S. cerevisiae deletion strains, growth OD, locus YJR043C, strain POL32, stronger effect = lower value
Hit rate of the full screen: of about 5,500 compounds, about 2,000 (36%) were called active. Not shown: some 18% with an inconclusive outcome. Some of the results follow.
Each item that follows carries a reported normalized growth.
measurement label: normalized growth

[[record]]
compound = "CC(C)C(C)/C=C/C(C)C1CCC2C3=CC=C4CC(O)CCC4(C)C3CCC21C (stereo unspecified)"
measurement_label = "normalized growth"
result = "1.03 (inactive)"

[[record]]
compound = "Cn1c(=O)c2[nH]cnc2n(C)c1=O"
measurement_label = "normalized growth"
result = "0.997 (inactive)"

[[record]]
compound = "CCC(C)c1cnc(CC(C)C)c(=O)n1O (stereo unspecified)"
measurement_label = "normalized growth"
result = "0.645 (active)"

[[record]]
compound = "N#C/C(=C\\c1cccn1-c1ccc(OC(F)(F)F)cc1)S(=O)(=O)c1ccccc1"
measurement_label = "normalized growth"
result = "0.986 (inactive)"

[[record]]
compound = "CC1(C)NC(=O)N(c2ccc([N+](=O)[O-])c(C(F)(F)F)c2)C1=O"
measurement_label = "normalized growth"
result = "1 (inactive)"

[[record]]
compound = "N#C/C(=C\\c1ccc(Oc2ccccc2)nc1)S(=O)(=O)c1ccccc1"
measurement_label = "normalized growth"
result = "0.981 (inactive)"

